From: paper PMC7613929

- TARGET OR TEST SYSTEM: T1, Vibrio maritimus FtsA residues 1-396 (VmFtsA^1-396) (Vibrio maritimus)
- T1 chain: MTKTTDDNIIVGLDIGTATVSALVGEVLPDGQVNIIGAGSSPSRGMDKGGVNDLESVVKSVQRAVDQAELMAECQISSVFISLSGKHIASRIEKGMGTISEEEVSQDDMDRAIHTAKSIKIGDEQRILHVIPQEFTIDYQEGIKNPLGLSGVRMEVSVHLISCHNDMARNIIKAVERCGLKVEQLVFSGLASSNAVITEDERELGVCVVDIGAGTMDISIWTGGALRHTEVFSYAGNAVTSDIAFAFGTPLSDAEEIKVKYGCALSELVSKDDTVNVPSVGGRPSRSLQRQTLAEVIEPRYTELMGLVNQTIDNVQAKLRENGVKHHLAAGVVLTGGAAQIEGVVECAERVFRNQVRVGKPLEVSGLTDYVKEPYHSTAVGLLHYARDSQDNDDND
- ASSAY METHOD TEXT: AUC; two-step model, second transition (polymerisation)
REPORTED ENDPOINT: pKd
Numbers only, as −log10 of the molar value.

Ask: Consider the binder shown here: MANRDYVRRGKGTSRRPAKKKTSGKKPWRC (Atto 495 (maleimide) on the added C-terminal cysteine) [VmFtsN^1-29-C-Atto 495] What is its recorded pKd?
Result: 4.26
